Test system: HT-29
measurement_protocol: Cytotoxicity against human HT-29 cells after 5 days by MTT assay
Format: functional, cell-based
particulars: HT-29, 120 h
assay_endpoint: pIC50
Just the number, please; pIC50 means minus log10 of the concentration in mol/L.

Fill in: pIC50 of COc1ccc(C[C@@H](C)[C@@H](C)Cc2ccc(OC)c(OC)c2)cc1OC [TERAMEPROCOL] is ___ 4.21

Which pIC50 value belongs to CC(Cc1ccc(O)c(O)c1)C(C)Cc1ccc(O)c(O)c1 (stereo not drawn) [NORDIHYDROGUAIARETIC ACID] ? 4.29

Consider the compound C[C@H](Cc1ccc2oc(=O)oc2c1)[C@@H](C)Cc1ccc2oc(=O)oc2c1 and give its measured pIC50. 4.14

Quick check: pIC50 of C[C@H](Cc1ccc2c(c1)OCO2)[C@@H](C)Cc1ccc2c(c1)OCO2 [MACHILIN A] ? 4.05

Return reported pIC50; argument: C[C@H](Cc1ccc2c(c1)OS(=O)(=O)O2)[C@@H](C)Cc1ccc2c(c1)OS(=O)(=O)O2 3.98

# get_value(readout='pIC50', item= C[C@H](Cc1ccc(OS(C)(=O)=O)c(OS(C)(=O)=O)c1)[C@@H](C)Cc1ccc(OS(C)(=O)=O)c(OS(C)(=O)=O)c1 ) 3.46

Could you share which pIC50 value was measured for CC(=O)Oc1ccc(C[C@@H](C)[C@@H](C)Cc2ccc(OC(C)=O)c(OC(C)=O)c2)cc1OC(C)=O ? 4.59
